Test system: MDA-MB-415 (Breast Carcinoma)
Assay: combination Emax (second highest fraction inhibited in the dose matrix, 72 h); higher = more inhibition; extreme values may be limits of the assay

compound	combination Emax
Cn1cnc2c(F)c(Nc3ccc(Br)cc3Cl)c(C(=O)NOCCO)cc21 [Selumetinib] + C[C@@H]1COCCN1C2=NC(=NC(=C2)C3(CC3)[S@](=N)(=O)C)C4=C5C=CNC5=NC=C4 [AZD6738] (first compound max 10 µM, 7x7, partner max 10 µM)	0.458
CN(CCO)CC[C@H](CSc1ccccc1)Nc1ccc(S(=O)(=O)NC(=O)c2ccc(N3CCC([C@@H](O)c4ccccc4-c4ccc(Cl)cc4)CC3)cc2)cc1S(=O)(=O)C(F)(F)F [AZD4320] + C[C@@H](Nc1cc(F)cc(F)c1)c1cc(C(=O)N(C)C)cc2c(=O)cc(N3CCOCC3)oc12 [AZD8186] (first compound max 1 µM, 7x7, partner max 3 µM)	0.909
COc1cccc(OCCCN)c1-c1cc(Nc2cnc(C#N)cn2)n[nH]1 [Prexasertib] + C[C@@H]1COCCN1C2=NC(=NC(=C2)C3(CC3)[S@](=N)(=O)C)C4=C5C=CNC5=NC=C4 [AZD6738] (first compound max 1 µM, 7x7, partner max 10 µM)	0.45
O=C(c1cc(Cc2n[nH]c(=O)c3ccccc23)ccc1F)N1CCN(C(=O)C2CC2)CC1 [Olaparib] + CC1(C)CCC(CN2CCN(c3ccc(C(=O)NS(=O)(=O)c4ccc(NCC5CCOCC5)c([N+](=O)[O-])c4)c(Oc4cnc5[nH]ccc5c4)c3)CC2)=C(c2ccc(Cl)cc2)C1 [Venetoclax] (first compound max 10 µM, 7x7, partner max 1 µM)	0.179
NC1(C(=O)N[C@@H](CCO)c2ccc(Cl)cc2)CCN(c2ncnc3[nH]ccc23)CC1 [Capivasertib] + COc1nnc2ccc(N3CCC(c4ccc(OCCN5CCN(C)C(=O)[C@H]5C)cc4)CC3)nn12 [AZD5153] (first compound max 10 µM, 7x7, partner max 1 µM)	0.9
CN(CCO)CC[C@H](CSc1ccccc1)Nc1ccc(S(=O)(=O)NC(=O)c2ccc(N3CCC([C@@H](O)c4ccccc4-c4ccc(Cl)cc4)CC3)cc2)cc1S(=O)(=O)C(F)(F)F [AZD4320] + C=CCn1c(=O)c2cnc(Nc3ccc(N4CCN(C)CC4)cc3)nc2n1-c1cccc(C(C)(C)O)n1 [AZD1775] (first compound max 1 µM, partner max 1 µM)	0.665
